Task for the reader: assign each of the following molecules its reported GI50.
Tested on: KM12
run-description: NCI tumour cell line growth inhibition, 48 h
The source made the active and inactive calls. Cut-off read from the data, not from the text of the source: active = GI50 up to about 1.1 µM and inactive = higher.

# get_value(readout= GI50, system= KM12) for "CCOP(=O)(OCC)/C(C#N)=C/c1c(C)[nH]c2ccccc12"
> 100 µM (inactive)

# get_value(readout= GI50, system= KM12) for "O=[N+]([O-])/C=C(\CS(=O)(=O)c1ccccc1)c1ccc2c(c1)OCO2"
28.4 µM (inactive)

# get_value(readout= GI50, system= KM12) for "CNCc1cc(OC)ccc1-c1ccc(OC)c(OC)c1OC"
> 85.9 µM (inactive)

# get_value(readout= GI50, system= KM12) for "Cc1c(CCOC=O)c(=O)[nH]c2nncn12"
> 100 µM (inactive)

# get_value(readout= GI50, system= KM12) for CC12CCC(C1)C(C)(C)C2OC(=O)c1ccccc1N (stereo not given)
16.3 µM (inactive)

# get_value(readout= GI50, system= KM12) for "COc1ccc(/C=C/C(=O)/C=C/c2ccc(OC)cc2)cc1"
24 µM (inactive)

# get_value(readout= GI50, system= KM12) for O=C(NCCCCCCNC(=O)n1cc(F)c(=O)[nH]c1=O)NCCCOCCOCCOCCOCCOCCOCCOCCOCCOCCOCCOCCOCCOCCOCCOCCOCCOCCOCCOCCOCCOCCCNC(=O)C(O)C(O)C(OC1OC(CO)C(O)C(O)C1O)C(O)CO (stereo not given)
19.6 µM (inactive)

# get_value(readout= GI50, system= KM12) for "O=C(N/N=C\c1c(O)ccc2ccccc12)c1ccncc1"
2.7 µM (inactive)

# get_value(readout= GI50, system= KM12) for CC(C)(C=O)CC(C#N)/C(=N\NC(N)=O)C(=O)Nc1ccccc1C(N)=O (stereo not given)
> 100 µM (inactive)

# get_value(readout= GI50, system= KM12) for NC(=O)c1ncn(C2CCC(CP(=O)(O)O)C2)c1N (stereo not given)
> 100 µM (inactive)

----------
Test system: CAKI-1
run-description: NCI tumour cell line growth inhibition, 48 h
Active and inactive are the calls of the source. No stated cut-off is given here; in the data, active = GI50 up to about 1.1 µM and inactive = higher. Where a SMILES comes first, the peptide text is derived from it. [ ]: non-standard residue; d: D form. The star is where a group is joined. Bn2Val = CC(C)[C@@H](C(=O)*)N(Cc1ccccc1)Cc1ccccc1; NHPiperonyl = c1cc2c(cc1CN*)OCO2; NMeV = CN[C@H](C(=O)O)C(C)C; dNMeA = CN[C@H](C)C(=O)O
A correct response names exactly one class from t for active, f for inactive

Answer briefly: the call reported for COc1cccc(N2C(=O)C3c4[nH]c5ccccc5c4C4c5ccccc5CCC4C3C2=O)c1 (stereo not given) in this assay.
f

Answer briefly: the call reported for "COc1cc2ccnc3c2c(c1OC)-c1coc(SC)c1-3" in this assay.
f

Answer briefly: the call reported for COc1ccc2c(c1)CCN1CCc3ccccc3CC21 (stereo not given) in this assay.
f

Answer briefly: the call reported for "O=c1[nH]c(Br)nc2c(Br)c[nH]c12" in this assay.
f

Answer briefly: the call reported for "CN(C)N1C(=O)SCC(c2ccccc2)(c2ccccc2)C1=O" in this assay.
f

Answer briefly: the call reported for "COc1ccc(/C=C/C(=O)/C=C/c2ccc(OC)cc2)cc1" in this assay.
f

Answer briefly: the call reported for "S=C(c1c[nH]c2ccccc12)N1CCN(Cc2ccccc2)CC1" in this assay.
f

Answer briefly: the call reported for "O=C1C=C(NCCOCCO)C(=O)c2c(O)ccc(O)c21" in this assay.
f

Answer briefly: the call reported for CC1C(OC2O[C@@H]3O[C@@]4(C)CC[C@H]5[C@H](C)CC[C@@H](C2C)[C@@]35O4)O[C@@H]2O[C@@]3(C)CC[C@H]4[C@H](C)CC[C@@H]1[C@@]24O3 (stereo not given in full) in this assay.
f

Answer briefly: the call reported for "COc1ccc2cccc(C(=N)c3ccc(C)c4c3CCC4)c2c1" in this assay.
f

Answer briefly: the call reported for "COc1ccc(/C=C/c2onc3c(=O)n(C)nc(-c4ccccc4)c23)cc1" in this assay.
f

Answer briefly: the call reported for O=C1c2ccccc2C2(O)Nc3cc(O)ccc3C12O (stereo not given) in this assay.
f

Answer briefly: the call reported for "O=[N+]([O-])/C=C/c1cn(CCCCCCCCCCCCn2cc(/C=C/[N+](=O)[O-])c3ccccc32)c2ccccc12" in this assay.
f

Answer briefly: the call reported for "COC(C/C(=C/CO[Si](C(C)C)(C(C)C)C(C)C)C(=O)N(C(=O)OC(C)(C)C)c1ccccc1I)OC" in this assay.
f

Answer briefly: the call reported for CCOC(=O)c1csc(C(CSCc2ccc(OC)cc2)N2C(=O)c3ccccc3C2=O)n1 (stereo not given) in this assay.
f

Answer briefly: the call reported for CC(C)[C@H](NC(=O)[C@H](C(C)C)N(Cc1ccccc1)Cc1ccccc1)C(=O)N(C)[C@H](C(=O)N1CCC[C@H]1C(=O)N(C)[C@H](C)C(=O)NCc1ccc2c(c1)OCO2)C(C)C (Bn2Val-V[NMeV]P[dNMeA]-NHPiperonyl) in this assay.
f

Answer briefly: the call reported for "Cc1cc(C)nc(NS(=O)(=O)c2ccc(Nc3c4ccc(Cl)cc4nc4c(C(=O)NCCN(C)C)cccc34)cc2)n1" in this assay.
f

Answer briefly: the call reported for "C=CC(=O)N1C/C(=C\c2ccc(Cl)cc2)C(=O)/C(=C/c2ccc(Cl)cc2)C1" in this assay.
t

Answer briefly: the call reported for "N=c1oc2ccc([N+](=O)[O-])cc2cc1C(=O)Nc1ccccn1" in this assay.
f

Answer briefly: the call reported for CC(=O)N(CN1C(=O)CCC1C(=O)O)c1ccc(C)cc1 (stereo not given) in this assay.
f

Answer briefly: the call reported for COC(=O)c1cc(O)ccc1O [METHYL 2,5-DIHYDROXYBENZOATE] in this assay.
f

Answer briefly: the call reported for CC(C)(C)C(=O)CC1=Nc2ccccc2SC1(O)CC(=O)C(C)(C)C (stereo not given) in this assay.
f

Answer briefly: the call reported for "Cc1cc(/N=N/c2c(O)ccc3ccccc23)ccc1/N=N/c1cccc([N+](C)(C)C)c1" in this assay.
f

Answer briefly: the call reported for Cc1ccc(NC(=O)/C(=N\NC(N)=S)C(C#N)c2ccccc2C)cc1C (stereo not given) in this assay.
f

Answer briefly: the call reported for CCOC(=O)C1CC/C(=C(/C#N)C(=O)OC)N1 (stereo not given) in this assay.
f

Answer briefly: the call reported for O=C1C2c3[nH]c4ccccc4c3C3CCCCCC3C2C(=O)N1c1ccccc1 (stereo not given) in this assay.
f

Answer briefly: the call reported for COc1cc(C2SCC(=O)N2Cc2ccccc2)cc(OC)c1OC (stereo not given) in this assay.
f

Answer briefly: the call reported for COc1c(O)c2c(c3cc(C(=O)N4CCc5c4c(O)c(OC)c4[nH]c(C(=O)N6CC7CC78C6=CC(=O)c6[nH]cc(C)c68)cc54)[nH]c13)CCN2C(N)=O (stereo not given) [CC-1065] in this assay.
t

Answer briefly: the call reported for "CC(=O)OCc1cc(OC(C)=O)cnc1COC(C)=O" in this assay.
f

Answer briefly: the call reported for "C/C(=C1/N=C(c2ccccc2)OC1=O)c1cccs1" in this assay.
f
